Field: IC50 of IL-1α signaling (HEK-Blue assay). Provide a value for each of the binders that follow.
# systemName: T1, human IL1RAP on the cell surface (human, UniProt Q9NPH3 21-570)
# T1 sequence (looked up): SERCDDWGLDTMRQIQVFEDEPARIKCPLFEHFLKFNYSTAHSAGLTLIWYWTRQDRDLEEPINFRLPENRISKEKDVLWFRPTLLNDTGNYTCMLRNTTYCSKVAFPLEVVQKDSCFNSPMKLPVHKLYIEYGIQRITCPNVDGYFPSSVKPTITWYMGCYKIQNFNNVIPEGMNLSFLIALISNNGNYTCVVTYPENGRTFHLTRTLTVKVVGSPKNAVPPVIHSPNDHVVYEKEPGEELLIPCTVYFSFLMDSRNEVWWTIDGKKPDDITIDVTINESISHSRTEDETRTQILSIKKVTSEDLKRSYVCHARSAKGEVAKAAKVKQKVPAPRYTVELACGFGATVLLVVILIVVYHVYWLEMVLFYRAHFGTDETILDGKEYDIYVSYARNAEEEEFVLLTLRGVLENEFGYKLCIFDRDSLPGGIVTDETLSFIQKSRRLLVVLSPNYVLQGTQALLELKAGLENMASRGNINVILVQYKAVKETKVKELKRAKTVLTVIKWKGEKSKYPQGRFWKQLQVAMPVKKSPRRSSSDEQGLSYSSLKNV
# assayProtocol: cell-based or functional assay
One number for each entry, in µM.

These recorded examples may help you get a feel for the data.
binder: h48D2 VH2:VL5 (antibody, human IgG1, kappa, L234A L235A, V domains shown, Humanized; also called VL5:VH2) VH: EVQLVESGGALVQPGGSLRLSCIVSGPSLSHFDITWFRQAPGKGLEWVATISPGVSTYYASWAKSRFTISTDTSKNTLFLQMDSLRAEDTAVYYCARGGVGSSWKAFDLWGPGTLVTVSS VL: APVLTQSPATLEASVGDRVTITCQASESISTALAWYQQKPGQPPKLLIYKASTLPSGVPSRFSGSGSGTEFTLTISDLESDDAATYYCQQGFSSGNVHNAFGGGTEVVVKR
measureName: IC50 of IL-1α signaling (HEK-Blue assay)
quantityUnit: µM
measurement: 0.401

binder: h48D2 VH1:VL3 (antibody, human IgG1, kappa, L234A L235A, V domains shown, Humanized; also called VL3:VH1) VH: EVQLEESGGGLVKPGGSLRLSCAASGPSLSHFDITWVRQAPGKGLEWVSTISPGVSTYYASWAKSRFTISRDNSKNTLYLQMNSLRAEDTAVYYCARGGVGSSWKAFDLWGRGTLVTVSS VL: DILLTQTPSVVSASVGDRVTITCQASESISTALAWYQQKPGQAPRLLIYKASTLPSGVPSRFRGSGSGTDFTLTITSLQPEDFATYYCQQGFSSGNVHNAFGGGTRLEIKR
measureName: IC50 of IL-1α signaling (HEK-Blue assay)
quantityUnit: µM
measurement: 0.231

binder: h48D2 VH5:VL2 (antibody, human IgG1, kappa, L234A L235A, V domains shown, Humanized; also called VL2:VH5) VH: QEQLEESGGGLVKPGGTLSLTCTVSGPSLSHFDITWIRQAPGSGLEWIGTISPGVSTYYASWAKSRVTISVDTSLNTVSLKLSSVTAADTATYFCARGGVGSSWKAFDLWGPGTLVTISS VL: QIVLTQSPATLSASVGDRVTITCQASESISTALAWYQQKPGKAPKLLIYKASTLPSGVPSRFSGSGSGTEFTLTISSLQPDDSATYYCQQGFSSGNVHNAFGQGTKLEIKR
measureName: IC50 of IL-1α signaling (HEK-Blue assay)
quantityUnit: µM
measurement: 0.00377

Kindly consider the entry below.
Documented IC50 of IL-1α signaling (HEK-Blue assay) of h48D2 VH3:VL5 (antibody, human IgG1, kappa, L234A L235A, V domains shown, Humanized; also called VL5:VH3) VH: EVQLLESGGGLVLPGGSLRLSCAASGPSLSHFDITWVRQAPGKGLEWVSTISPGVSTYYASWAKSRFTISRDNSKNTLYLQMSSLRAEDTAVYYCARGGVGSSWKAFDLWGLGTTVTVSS VL: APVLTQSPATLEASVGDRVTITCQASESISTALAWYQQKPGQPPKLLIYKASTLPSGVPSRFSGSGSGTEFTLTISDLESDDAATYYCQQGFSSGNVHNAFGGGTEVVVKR : 0.288
